Inhibition values by entry
tested on: Staphylococcus aureus; assay: Antibacterial activity against Staphylococcus aureus MRSA ATCC 43300 (CO-ADD:GP_020); MIC in CAMBH media using NBS plates, by Resazurin F(560/590); format: functional; conditions: Concentration 20 uM, ASSAY_TEST Inhibition of Bacterial Growth, detection method Resazurin, Fluorescence (ex560/em590), MEDIA CAMHB, plate type 384well, CORNING #3640, time 18 hr
I only need the number, in %, no unit after it.

CC(=O)[C@@]1(O)[C@H](C)C[C@H]2[C@@H]3C=C(C)C4=Cc5c(cnn5-c5ccccc5)C[C@]4(C)[C@H]3[C@@H](O)C[C@@]21C: 3.25

Challenge: Inhibition for `COc1ccccc1NC(=O)Nc1cc(C(C)C)ccc1C` ?
Response given: 13.43

---

system: Klebsiella pneumoniae; conditions: Concentration 20 uM; ASSAY_TEST Inhibition of Bacterial Growth; detection method Absorption (OD600); MEDIA CAMHB; plate type 384well; NBS; CORNING #3640; time 18 hr
Description: Antibacterial activity against Klebsiella pneumoniae MDR ATCC 70063 (CO-ADD:GN_003); MIC in CAMBH media using NBS plates, by OD(600)
Results with a measured potency or affinity are listed apart.
metric: Inhibition (%)
I only need the number, in %, no unit after it.

Sample answers from the record:
Cc1cc(N2CCOCC2)nc(N2CCOCC2)n1: 4.64
c1ccc(-c2nnc(-c3ccccn3)[nH]2)nc1: 7.68
c1ccc(Sc2ncnc3ccccc23)cc1: 8.16

Challenge: Find Inhibition (Klebsiella pneumoniae) for the entry `O=C(OCC(O)COC(=O)c1cccnc1)c1cccnc1`
Response given: 3.04

Challenge: Find Inhibition (Klebsiella pneumoniae) for the entry `CCCCCC(=O)N1CCCCC1`
Response given: 14.07

Challenge: Find Inhibition (Klebsiella pneumoniae) for the entry `Fc1ccc(-c2cc(-c3cccs3)cc(-c3ccccc3)n2)cc1`
Response given: 7.87

Challenge: Find Inhibition (Klebsiella pneumoniae) for the entry Nc1ccccc1SC1CC(=O)N(c2ccc(Cl)c(Cl)c2)C1=O (stereo not drawn)
Response given: 8.81

Challenge: Find Inhibition (Klebsiella pneumoniae) for the entry `O=S(=O)(O)c1ccc(/N=N/c2ccccc2)cc1`
Response given: 7.84

Challenge: Find Inhibition (Klebsiella pneumoniae) for the entry `NS(=O)(=O)c1ccc(NC(=S)NC(=O)c2ccco2)cc1`
Response given: 4.06

Challenge: Find Inhibition (Klebsiella pneumoniae) for the entry `CC(=O)Oc1ccc(OC(C)=O)c2c1CC(C)=C(C)C2`
Response given: 4.69

Challenge: Find Inhibition (Klebsiella pneumoniae) for the entry `Cc1ccc([N+](=O)[O-])cc1NC(=O)Nc1cccc(F)c1`
Response given: 12.62

---

Inhibition values by entry
test system: Acinetobacter baumannii; test: Antibacterial activity against Acinetobacter baumannii ATCC 19606 (CO-ADD:GN_034); MIC in CAMBH media using NBS plates, by Resazurin F(560/590); format: functional; details: Concentration 20 uM, ASSAY_TEST Inhibition of Bacterial Growth, detection method Resazurin, Fluorescence (ex560/em590), MEDIA CAMHB, plate type 384well, CORNING #3640, time 18 hr
I only need the number, in %, no unit after it.

Sample answers from the record:
Clc1nnc(NC2CCCCC2)c(Cl)c1Cl: -5.61
CCn1c2ccccc2c2c3ncc4cccn4c3ccc21: -8.64
O=C(c1cccnc1)N1CCN(c2ccccc2Cl)CC1: -13.63
N#C/N=C/N1CC=C(c2ccc(Cl)cc2)CC1: 10.12
O=C(O)c1cc(Cl)nnc1O: -4.6

Challenge: Find Inhibition (Acinetobacter baumannii) for the entry `Nc1ncncc1-c1ccc2ccccc2c1`
Response given: 6.7

Challenge: Find Inhibition (Acinetobacter baumannii) for the entry CCC1=C(c2ccc(OC)cc2)CCC(C(=O)O)C1C (stereo not drawn)
Response given: 6.76

Challenge: Find Inhibition (Acinetobacter baumannii) for the entry `Cc1cc2c3ccccc3ncn2n1`
Response given: -9.67

---

system: Candida albicans; conditions: 20 µM
Description: Antifungal activity against Candida albicans ATCC 90028 (CO-ADD:FG_001); MIC in YNB media using NBS plates, by OD630
Results with a measured potency or affinity are listed apart.
Inhibition values by entry
I only need the number, in %, no unit after it.

Sample answers from the record:
O=C1/C(=C/c2ccc([N+](=O)[O-])cc2)CCc2ccccc21: 3.4
CC(=O)O.N=c1ccn2c(n1)OC1C(O)C(CO)OC12 (stereo not given): -0.52
O=C(O)Cc1sc(O)nc1O: 28.5

Challenge: Inhibition for `CCC/C(C)=C/c1ccc(CC)cn1` ?
Response given: 3.23

Challenge: Inhibition for `Oc1ccc(Nc2ccc3ccccc3c2)cc1` ?
Response given: 3.31

---

system: Escherichia coli; test: Antibacterial activity against Escherichia coli ATCC 25922 (CO-ADD:GN_001); MIC in CAMBH media using NBS plates, by Resazurin F(560/590); format: functional; conditions: Concentration 20 uM, ASSAY_TEST Inhibition of Bacterial Growth, detection method Resazurin, Fluorescence (ex560/em590), MEDIA CAMHB, plate type 384well, CORNING #3640, time 18 hr
Inhibition values by entry
I only need the number, in %, no unit after it.

Sample answers from the record:
COc1ccc([N+](=O)[O-])cc1NC(=O)N(C)Cc1ccco1: 6.67
CSc1ccc(NC(=O)Nc2ccccc2C(N)=O)cc1: 11.12
OCC1CCCC(n2cnc3c(S)ncnc32)O1 (centres undefined): 6.02
CC(=O)Oc1ccc2cc(-c3ccccc3)c(=O)oc2c1: -2.31
Nc1ccccc1SC1CC(=O)N(c2ccc(Cl)c(Cl)c2)C1=O (centres undefined): 0.8
O=C(O)c1ccccc1-c1ccccc1C(=O)Nc1ccc2c(c1)nc(O)c1ccccc12: 10.96
N#CC1=C2CCCCC2(O)NC1=O (centres undefined): 7.41
CCCCc1c(C)nc(S)nc1O: 9.4

// below: Inhibition requested for another compound
Challenge: Inhibition for `Nc1[nH]nc2nc(-c3ccccc3)nc(O)c12` ?
Response given: 2.06

---

test system: Klebsiella pneumoniae; conditions: Concentration 20 uM; ASSAY_TEST Inhibition of Bacterial Growth; detection method Absorption (OD600); MEDIA CAMHB; plate type 384well; NBS; CORNING #3640; time 18 hr
Potency and affinity values are given separately.
Quick rule: Inhibition of at least 20% means T, below that means F.

These recorded examples may help you get a feel for the data.
COc1cccc(NC(S)=Nc2ccc(O)cc2)c1: F
CC1=NN(c2ccccc2)C(=O)C1C(=S)SC1CC(=O)NC1=O (stereo unspecified): F
ClC(Cl)(Cl)C1=Nc2c(nnn2Cc2ccccc2)CN1: F
CN(CCC#N)c1ccc(/C=C(\C#N)c2cccc(C(F)(F)F)c2)cc1: F
CCCCCCC(C)OC(=O)c1ccccc1C(=O)O (stereo unspecified): T

Challenge: Quick check: does `C#CC1(N2CCCCC2)CCCCC1` have Inhibition greater than or equal to 20%?
Response given: F

Challenge: Quick check: does `CCOC(=O)Nc1c(Cl)n(C)c(=O)n(C)c1=O` have Inhibition greater than or equal to 20%?
Response given: F

Challenge: Quick check: does `c1ccc2c(c1)[nH]c1c3ccccc3sc21` have Inhibition greater than or equal to 20%?
Response given: F

Challenge: Quick check: does `N#Cc1c(N)nc(N)nc1Nc1ccc(Br)cc1` have Inhibition greater than or equal to 20%?
Response given: T

Challenge: Quick check: does `C#Cc1cccc(NC(=O)c2ccc(Cl)cc2Cl)c1` have Inhibition greater than or equal to 20%?
Response given: F

---

Inhibition values by entry
test system: Escherichia coli; assay: Antibacterial activity against Escherichia coli ATCC 25922 (CO-ADD:GN_001); MIC in CAMBH media using NBS plates, by Resazurin F(560/590); format: functional; conditions: Concentration 20 uM, ASSAY_TEST Inhibition of Bacterial Growth, detection method Resazurin, Fluorescence (ex560/em590), MEDIA CAMHB, plate type 384well, CORNING #3640, time 18 hr
Value and unit, in that order.

Sample answers from the record:
CCC1=C(c2ccc(OC)cc2)CCC(C(=O)O)C1C (centres undefined): -4.91%
Cn1c(=O)c2c(nc(N3CCCCC3)n2C)n(C)c1=O: 2.17%
CCC(CC)c1ncc[nH]1: 9.75%
CSC1=NC=C(C#N)C2=NC(c3ccc(Cl)cc3)NN12 (centres undefined): -2.57%
CCOC(=O)Nc1ccc2nc(N3CCCCCC3)sc2c1: 8.66%
Cc1ccc(S(=O)(=O)CCOC(=O)CNC(=O)OCc2ccccc2)cc1: 0.72%
CN(C)S(=O)(=O)Nc1ccccn1: -0.96%
O=C(Nc1ccc(Cl)cc1)Nc1cccc2nsnc12: -11.2%
CNc1ncnc2c1cnn2C1CCCCO1 (centres undefined): 9.64%
Cc1c(Cl)ccc2c(C(=O)O)cc(-c3ccccc3)nc12: 2.11%

Challenge: Inhibition for `CSc1cccc(NC(=O)N2CCN(C)CC2)c1` ?
Response given: 6.03%

Challenge: Inhibition for `c1ccc(-c2nnc(-c3ccccc3)nn2)cc1` ?
Response given: 11.38%

Challenge: Inhibition for O=[N+]([O-])C1C(c2ccccc2)C12c1ccccc1-c1ccccc12 (centres undefined) ?
Response given: 13.79%

Challenge: Inhibition for `O=C(Nc1ccc(Nc2ccncc2)cc1)c1ccc([N+](=O)[O-])cc1` ?
Response given: 7.64%

Challenge: Inhibition for `CSc1cccc(NC(=O)OC2CCCCCCCCCCC2)c1` ?
Response given: 14.03%

Challenge: Inhibition for FC(F)(F)c1cccc(OCC2CN=C(S)O2)c1 (centres undefined) ?
Response given: -6.27%

Challenge: Inhibition for `O=c1c2ccccc2ncn1-c1ccc(Cl)cc1` ?
Response given: 12.96%

Challenge: Inhibition for `Cc1nccnc1Sc1ccccc1` ?
Response given: 2.25%

Challenge: Inhibition for `N=C(N)NC(=S)Nc1ccc(Cl)cc1` ?
Response given: 19.57%
